Cited source: patent US12630498B2

target entity: human Cystic Fibrosis Transmembrane Conductance Regulator (CFTR) harboring the ΔF508 mutation (Homo sapiens, UniProt P13569, DEL508-508)
Construct: expressed in transfected cells; host or cells: H441 carcinoma line (G418-selected)
Sequence (P13569 with tags, fused parts or gaps DEL508-508): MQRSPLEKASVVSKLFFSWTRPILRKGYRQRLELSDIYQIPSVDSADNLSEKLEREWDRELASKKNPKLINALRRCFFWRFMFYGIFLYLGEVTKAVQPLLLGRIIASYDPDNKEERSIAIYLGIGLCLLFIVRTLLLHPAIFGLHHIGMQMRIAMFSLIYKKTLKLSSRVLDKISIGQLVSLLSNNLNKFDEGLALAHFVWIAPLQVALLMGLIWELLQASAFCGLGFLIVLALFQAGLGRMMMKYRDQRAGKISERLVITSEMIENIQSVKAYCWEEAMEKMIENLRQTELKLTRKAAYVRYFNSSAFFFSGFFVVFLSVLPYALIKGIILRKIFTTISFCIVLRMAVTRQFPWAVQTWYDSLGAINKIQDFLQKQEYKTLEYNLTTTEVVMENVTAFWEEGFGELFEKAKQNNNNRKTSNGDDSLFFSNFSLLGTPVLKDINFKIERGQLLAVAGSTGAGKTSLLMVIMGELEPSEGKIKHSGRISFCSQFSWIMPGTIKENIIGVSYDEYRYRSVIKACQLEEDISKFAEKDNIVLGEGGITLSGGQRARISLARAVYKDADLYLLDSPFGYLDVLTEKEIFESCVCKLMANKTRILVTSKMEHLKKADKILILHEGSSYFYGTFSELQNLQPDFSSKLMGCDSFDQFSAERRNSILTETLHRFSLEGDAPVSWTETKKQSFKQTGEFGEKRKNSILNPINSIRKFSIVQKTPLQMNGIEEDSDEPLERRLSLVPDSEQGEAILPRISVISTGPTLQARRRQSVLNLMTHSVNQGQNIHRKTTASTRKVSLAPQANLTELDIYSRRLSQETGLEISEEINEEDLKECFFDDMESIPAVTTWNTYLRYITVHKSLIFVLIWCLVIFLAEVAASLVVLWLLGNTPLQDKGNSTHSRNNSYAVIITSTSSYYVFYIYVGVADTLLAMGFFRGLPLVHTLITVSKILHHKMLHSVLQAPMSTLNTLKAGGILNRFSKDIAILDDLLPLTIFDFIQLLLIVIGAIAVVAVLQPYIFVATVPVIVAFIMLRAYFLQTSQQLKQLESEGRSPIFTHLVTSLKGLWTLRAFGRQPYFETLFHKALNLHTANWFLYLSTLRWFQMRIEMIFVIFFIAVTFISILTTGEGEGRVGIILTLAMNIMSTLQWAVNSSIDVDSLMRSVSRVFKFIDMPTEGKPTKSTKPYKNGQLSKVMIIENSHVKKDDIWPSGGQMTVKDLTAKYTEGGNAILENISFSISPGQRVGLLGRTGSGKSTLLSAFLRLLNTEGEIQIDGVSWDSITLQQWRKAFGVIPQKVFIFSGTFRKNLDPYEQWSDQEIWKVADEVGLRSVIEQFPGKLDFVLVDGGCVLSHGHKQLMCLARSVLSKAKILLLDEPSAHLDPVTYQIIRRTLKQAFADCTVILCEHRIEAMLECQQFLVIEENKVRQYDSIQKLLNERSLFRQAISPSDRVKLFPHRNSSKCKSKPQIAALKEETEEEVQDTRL
assay name: H441 cell ΔF508-CFTR-HRP cell surface assay (Emax and EC50)
Type: cell-based
details: NCI-H441, NA = Not active
reported property: Emax (%)

Examples with answers:
- compound: "CC(c1ccccc1)C(NC(=O)c1ccc2ccccc2c1OCc1ccc(C(F)(F)F)cc1)C(=O)O (stereo not shown) [Example 127]"
  Emax / %: 98.5
- compound: "CC1(C(NC(=O)c2ccc3ccccc3c2OCc2ccc(C(F)(F)F)cc2)C(=O)O)CC1 (stereo not shown) [Example 56]"
  Emax / %: 127

1. CC(C)(C)[C@H](NC(=O)c1cc(Br)c2ccccc2c1OCc1ccc(C(F)(F)F)cc1)C(=O)O [Example 51]
2. CC1(C(NC(=O)c2ccc3cc(F)ccc3c2OCc2ccc(C(F)(F)F)cc2)C(=O)O)CC1 (stereo not shown) [Example 60]
3. CCC(C)(C)[C@H](NC(=O)c1ccc2ccc(OC)cc2c1OCc1ccc(OC(F)(F)F)cc1)C(=O)O [Example 311]
4. CN(C)c1ccc2c(OCc3ccc(C(F)(F)F)cc3)c(C(=O)N[C@H](C(=O)O)C(C)(C)C)ccc2c1 [compound 85]
5. CC(C)(SCC1CC1(F)F)[C@H](NC(=O)c1ccc2ccccc2c1OCc1ccc(S(C)(=O)=O)cc1)C(=O)O (stereo partly shown) [Example 166]
Data request: Parameters: sort_field (Emax), sort_dir (desc). Give the labels in the order requested.
Data returned: 3, 1, 2, 4, 5
